- assayed_system: Legumain (Ixodes ricinus, UniProt Q6PRC7)
- Sequence (Q6PRC7 whole entry): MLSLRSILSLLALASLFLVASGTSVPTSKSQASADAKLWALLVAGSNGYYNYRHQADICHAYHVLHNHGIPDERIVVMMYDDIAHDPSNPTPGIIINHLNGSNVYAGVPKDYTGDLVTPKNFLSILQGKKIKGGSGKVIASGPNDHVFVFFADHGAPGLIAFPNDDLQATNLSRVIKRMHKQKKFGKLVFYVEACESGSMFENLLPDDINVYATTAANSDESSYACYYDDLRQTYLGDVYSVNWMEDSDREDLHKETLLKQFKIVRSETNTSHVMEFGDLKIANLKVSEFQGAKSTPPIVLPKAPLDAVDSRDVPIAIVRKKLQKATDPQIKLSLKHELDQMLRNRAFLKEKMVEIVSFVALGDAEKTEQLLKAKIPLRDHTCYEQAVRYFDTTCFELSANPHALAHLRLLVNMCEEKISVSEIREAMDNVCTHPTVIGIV
Hi! Just check whether IC50 is below 200 nM. Below gives YES, equal or above gives NO.

Strictly below 200 nM in IC50? C[C@H](NC(=O)OCc1ccccc1)C(=O)N[C@@H](C)C(=O)NN(CC(N)=O)C(=O)C=CC(=O)N(Cc1ccccc1)Cc1ccc(F)cc1
NO

Is IC50 strictly under 200 nM for the entry CCOC(=O)C=CC(=O)N(CC(N)=O)NC(=O)[C@H](C)NC(=O)[C@H](C)NC(=O)CCCC[C@@H]1SC[C@@H]2NC(=O)N[C@@H]21 ?
YES

Check if IC50 falls below 200 nM for C[C@H](NC(=O)OCc1ccccc1)C(=O)N[C@@H](C)C(=O)NN(CC(N)=O)C(=O)C=CC(=O)N1Cc2ccccc2C1 .
YES

Check if IC50 falls below 200 nM for C[C@H](NC(=O)OCc1ccccc1)C(=O)N[C@@H](C)C(=O)NN(CC(N)=O)C(=O)C=CC(=O)N1CCc2ccccc2C1 .
YES

Determine if C[C@H](NC(=O)OCc1ccccc1)C(=O)N[C@@H](C)C(=O)NN(CC(N)=O)C(=O)C=CC(=O)N(Cc1ccccc1)Cc1ccc2ccccc2c1 shows IC50 strictly lower than 200 nM.
YES

IC50 strictly < 200 nM for this molecule? C[C@H](NC(=O)OCc1ccccc1)C(=O)N[C@@H](C)C(=O)NN(CC(N)=O)C(=O)C=CC(=O)NCc1ccc(F)cc1
NO

Field: below-cutoff. Rule: recorded IC50 strictly less than 200 nM. Subject: C[C@H](NC(=O)OCc1ccccc1)C(=O)N[C@@H](C)C(=O)NN(CC(N)=O)C(=O)C=CC(=O)NCCc1ccccc1
NO

----------
- assayed_system: Clan CD, family C13, asparaginyl endopeptidase-like cysteine peptidase (Trichomonas vaginalis (strain ATCC PRA-98 / G3), UniProt A2DYT2)
- Sequence (A2DYT2 whole entry): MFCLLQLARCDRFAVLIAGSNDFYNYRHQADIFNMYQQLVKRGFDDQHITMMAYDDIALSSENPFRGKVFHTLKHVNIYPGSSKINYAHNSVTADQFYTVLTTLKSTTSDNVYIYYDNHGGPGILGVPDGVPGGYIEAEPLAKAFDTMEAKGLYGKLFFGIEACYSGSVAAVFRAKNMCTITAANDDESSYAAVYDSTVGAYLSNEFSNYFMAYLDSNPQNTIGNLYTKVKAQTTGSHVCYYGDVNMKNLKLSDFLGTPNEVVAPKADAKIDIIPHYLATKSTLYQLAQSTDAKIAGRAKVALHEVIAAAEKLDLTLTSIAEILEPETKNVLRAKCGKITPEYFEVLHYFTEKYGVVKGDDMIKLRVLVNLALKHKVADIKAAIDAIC
- assay_info: AE Enzyme Inhibition Assay
- applied_conditions: 25 °C
// map IC50 onto a label; ranges lower segment: < 10 nM; middle segment: ≥ 10 nM and < 80 nM; upper segment: ≥ 80 nM

Please let me know in which category the item C[C@H](NC(=O)OCc1ccccc1)C(=O)N[C@@H](C)C(=O)NN(CC(N)=O)C(=O)C=CC(=O)N(Cc1ccccc1)c1ccccc1 belongs.
lower segment

Hello team, could you let me know which band the following compound falls into: C[C@H](NC(=O)OCc1ccccc1)C(=O)N[C@@H](C)C(=O)NN(CC(N)=O)C(=O)C=CC(=O)c1ccccc1
upper segment

Exam item: assign C[C@H](NC(=O)OCc1ccccc1)C(=O)N[C@@H](C)C(=O)NN(CC(N)=O)C(=O)C=CC(=O)N(C)Cc1ccccc1 to the correct category.
lower segment

Hi there! Could you help me figure out the category for COc1ccc(CN(Cc2ccccc2)C(=O)C=CC(=O)N(CC(N)=O)NC(=O)[C@H](C)NC(=O)[C@H](C)NC(=O)OCc2ccccc2)cc1 please?
lower segment

Hi, small favor: classify C[C@H](NC(=O)OCc1ccccc1)C(=O)N[C@@H](C)C(=O)NN(CC(N)=O)C(=O)C=CC(=O)N1CCc2ccccc21 by its IC50 when you get a moment.
middle segment

Field: class (IC50) — entry: C[C@H](NC(=O)OCc1ccccc1)C(=O)N[C@@H](C)C(=O)NN(CC(N)=O)C(=O)C=CC(=O)N1Cc2ccccc2C1
middle segment

Input C[C@H](NC(=O)OCc1ccccc1)C(=O)N[C@@H](C)C(=O)NN(CC(N)=O)C(=O)C=CC(=O)N(Cc1ccccc1)Cc1ccc2ccccc2c1 ; output its category
lower segment

Place this compound in its band: CC=CC=CC(=O)N(CC(N)=O)NC(=O)[C@H](C)NC(=O)[C@H](C)NC(=O)OCc1ccccc1
upper segment

Please classify: C[C@H](NC(=O)OCc1ccccc1)C(=O)N[C@@H](C)C(=O)NN(CC(N)=O)C(=O)C=CC(=O)N(Cc1ccco1)Cc1ccco1
upper segment

// return the class label for C[C@H](NC(=O)OCc1ccccc1)C(=O)N[C@@H](C)C(=O)NN(CC(N)=O)C(=O)C=CC(=O)N(C)Cc1cccc2ccccc12
lower segment

GET /class?item= C[C@H](NC(=O)OCc1ccccc1)C(=O)N[C@@H](C)C(=O)NN(CC(N)=O)C(=O)C=CC(=O)N(Cc1ccccc1)Cc1ccc(F)cc1
lower segment
